// reported IC50 for each item listed
Molecular target: Protein farnesyltransferase (Homo sapiens, UniProt P49354+P49356)
Assay: Inhibition of [3H]FPP incorporation into Ha-Ras by Farnesyltransferase
I'd appreciate it if you included the unit after the number.

Please review the following examples before continuing.
N[C@@H](CS)CN1CCN(C(=O)c2cccc3ccccc23)C[C@@H]1CCOC1CC1
1 nM
CCCC[C@H]1CN(C(=O)c2cccc(C)c2C)CCN1C[C@@H](N)CS
5 nM
CCCC[C@H]1CN(C(=O)c2cccc3ccccc23)CCN1C[C@@H](N)CS
1 nM
CCCC[C@H]1CN(C(=O)c2ccccc2)CCN1C[C@@H](N)CS
24 nM
CC[C@H]1CN(C(=O)c2cccc(C)c2C)CCN1C[C@@H](N)CS
68 nM
Cc1cccc(C(=O)N2CCN(C[C@@H](N)CS)CC2)c1C
160 nM

Please look at the following compound next.
Inquiry: Bench note: what IC50 did COCC[C@H]1CN(C(=O)c2cccc3ccccc23)CCN1C[C@@H](N)CS show?
Reply text: 3 nM

----------
Assay: Inhibition of human Geranylgeranyl transferase type I
assay endpoint: IC50 (µM)
Numbers only here, please. The scale is µM.

Inquiry: Bench note: what IC50 did N[C@@H](CS)CN1CCN(C(=O)c2cccc3ccccc23)C[C@@H]1CCOC1CC1 show?
Reply text: 3.9

----------
Target: Geranylgeranyl transferase type I (Bos taurus, UniProt P29702+Q5EAD5)
Experiment: Inhibition of bovine Geranylgeranyl transferase type I
Type: protein-complex assay
// reported pIC50 for each item listed
To interpret pIC50, take it as minus log10 of a concentration measured in moles per litre.

Please review the following examples before continuing.
Cc1cccc(C(=O)N2CCN(C[C@@H](N)CS)CC2)c1C
5.55
CCCC[C@H]1CN(C(=O)c2cccc3ccccc23)CCN1C[C@@H](N)CS
6.80
CCCC[C@H]1CN(C(=O)c2cccc(C)c2C)CCN1C[C@@H](N)CS
6.44

Inquiry: Bench note: what pIC50 did COCC[C@H]1CN(C(=O)c2cccc3ccccc23)CCN1C[C@@H](N)CS show?
Reply text: 5.00

----------
Molecular target: Protein farnesyltransferase (Rattus norvegicus, UniProt Q02293+Q04631)
Experiment: Inhibition of post-traslational processing of Ras protein in RAT1 cell line
assay endpoint: IC50 (nM)
Numbers only here, please. The scale is nM.

N[C@@H](CS)CN1CCN(C(=O)c2cccc3ccccc23)C[C@@H]1CCOC1CC1
500
COCC[C@H]1CN(C(=O)c2cccc3ccccc23)CCN1C[C@@H](N)CS
500

Inquiry: Bench note: what IC50 did CCCC[C@H]1CN(C(=O)c2cccc3ccccc23)CCN1C[C@@H](N)CS show?
Reply text: 500

The reported numbers originate from ChEMBL document CHEMBL1129531.
